- assay comment: Primary qHTS for inhibitors of nuclear receptor binding SET domain protein 2 (NSD2) in an RCH-ACV wild type WT cells (2C) (AID 1645877); note: nearly all actives have a fitted effect of over 70% in size
- assay context: RCH-ACV (leukaemia line) NSD2 WT (2C) viability, CellTiter-Glo, 72 h; series mostly up to 44.9 µM
Records with an inconclusive call do not appear. Calls of active or inactive are those of the source. Calls come from the whole dose curve; as a rule, active = well fitted inhibition curve with a large enough effect; inconclusive = small, poorly fitted or top-dose-only effect; inactive = no such curve, though single readings can be large or run the other way.
Outcome codes: active, inactive

compound=Cc1ccccc1-n1c([C@H](C)Nc2nc(N)nc3nc[nH]c23)nc2cccc(C)c2c1=O classification=active
compound=CC(C)CN(C[C@@H](O)[C@H](Cc1ccccc1)NC(=O)O[C@@H]1CO[C@H]2OCC[C@H]21)S(=O)(=O)c1ccc(N)cc1 classification=inactive
compound="CC1(C)CC[C@]2(C(=O)O)CC[C@]3(C)C(=CCC4[C@@]5(C)CC[C@H](O[C@@H]6O[C@H](CO)[C@@H](O)[C@H](O)[C@H]6O[C@@H]6O[C@H](CO)[C@@H](O)[C@H](O)[C@H]6O)[C@@](C)(CO)C5CC[C@]43C)[C@@H]2C1 (stereo partly drawn)" classification=inactive

====

- Test system: Tov-21-G
- assay comment: Primary qHTS to identify gynecologic anti-cancer compounds using libraries of approved drugs and bioactive compounds (AID 1345084); note: nearly all actives have a fitted effect of over 55% in size
- assay context: Gynecologic cancer cell panel viability, ATPlite luminescence, 48 h; series mostly up to 57.5 µM
Records with an inconclusive call do not appear. Activity calls are given as the source filed them. Calls come from the whole dose curve; as a rule, active = well fitted cell-killing curve with a large enough effect; inconclusive = small, poorly fitted or top-dose-only effect, or effect the other way; inactive = flat fitted curve, though single readings scatter.
Possible outcomes: active, inactive

compound=CC(C)(F)C[C@@H](N[C@@H](c1ccc(-c2ccc(S(C)(=O)=O)cc2)cc1)C(F)(F)F)C(=O)NC1(C#N)CC1 classification=inactive
compound=COc1ccc(C(=O)n2c(C)c(Cc3cccc(O[C@@H](C)C(=O)O)c3)c3cc(OC(F)(F)F)ccc32)cc1 classification=inactive
compound="CCC(C(=O)O)c1ccc(N2Cc3ccccc3C2=O)cc1 (stereo not given)" classification=inactive
compound=C/C=C/c1ccc2c(c1)[C@@H](C)[C@H](c1ccc(O)cc1)O2 classification=inactive
compound=CCCCC1CCN(CCCC(=O)c2ccccc2C)CC1 classification=inactive
compound="CC12CCC(OC3OC(CO)C(O)C(OC4OC(CO)C(O)C(O)C4O)C3O)CC1=CCC1C2CCC2(C)/C(=C3/COC(=O)C3)CCC12O (stereo not given)" classification=inactive
compound="CC1(C)CC[C@]2(C(=O)O[C@@H]3O[C@H](CO)[C@@H](O)[C@H](O)[C@H]3O)CC[C@]3(C)C(=CCC4[C@@]5(C)C[C@@H](O)[C@H](O)C(C)(C)C5[C@H](O)C[C@]43C)[C@@H]2[C@@H]1O (stereo not given in full)" classification=inactive
compound=C[C@@H]1[C@H]2[C@H](O[C@@H]3O[C@H](CO)[C@@H](O)[C@H](O)[C@H]3O)OC=C(C(=O)O)[C@H]2C[C@@H]1O classification=inactive
compound=Nc1nc2c(ncn2[C@@H]2O[C@@H]3COP(=O)(O)O[C@H]3[C@H]2O)c(=O)[nH]1 classification=inactive
compound="CC1=C2C[C@H]3O[C@@]3(C)CCC3O[C@@]3(C)C[C@@]2(O)OC1=O (stereo not given in full)" classification=inactive
compound="CCC(C)C(=O)O[C@H]1CCC=C2C=C[C@H](C)[C@H](CC[C@@H](O)C[C@@H](O)CC(=O)O)[C@H]21 (stereo not given in full)" classification=inactive
compound=C[C@H](Oc1ccc(S(C)(=O)=O)cc1C(=O)N1CCN(c2ncc(C(F)(F)F)cc2F)CC1)C(F)(F)F classification=inactive
compound="CC(Oc1ccc2[nH]nc(/C=C/c3cnn(CCO)c3)c2c1)c1c(Cl)cncc1Cl (stereo not given)" classification=active
compound="CC1=C(C(=O)O[C@@H]2O[C@H](COC3OCC(O)C(O)C3O)[C@@H](O)[C@H](O)[C@H]2O)C(C)(C)CCC1 (stereo not given in full)" classification=inactive
compound=C=C1C[C@]23C[C@H]1[C@@H](O)C[C@H]2[C@@]12C=C[C@H](O)[C@@](C)(C(=O)O1)[C@H]2[C@@H]3C(=O)O classification=inactive
compound="CC(C)C(NC(=O)c1ccc2ccccc2n1)C(=O)NC(CC(=O)O)C(=O)COc1c(F)cccc1F (stereo not given)" classification=inactive
compound="CC1=C(C(=O)O)/C(=C/CO[C@@H]2O[C@H](COC(=O)/C=C/c3ccc(O)cc3)[C@@H](O)[C@H](O)[C@H]2O)C(O)C1 (stereo not given in full)" classification=inactive
compound=Nc1ccc(/C=C/C(=O)NCc2cc3cc(-c4ccc(C(=O)N5CCC(F)(F)CC5)cc4)cc(-c4ccc(F)cc4)c3o2)cn1 classification=active
compound="COc1cc(C2Oc3c(OC)cc(CCCO)cc3C2CO)ccc1O[C@H]1O[C@H](C)[C@@H](O)[C@H](O)[C@@H]1O (stereo not given in full)" classification=inactive
compound=O=C(O)[C@@H]1C[C@H]2C[C@@H](CCc3nn[nH]n3)CC[C@H]2CN1 classification=inactive

====

- Test system: SKOV3
- assay comment: Primary qHTS to identify gynecologic anti-cancer compounds using libraries of approved drugs and bioactive compounds (AID 1345084); note: nearly all actives have a fitted effect of over 55% in size
- assay context: Gynecologic cancer cell panel viability, ATPlite luminescence, 48 h; series mostly up to 57.5 µM
Results filed as inconclusive are left out. Active and inactive are the calls of the source. Calls follow the shape of the dose curve; as a rule, active = well fitted cell-killing curve with a large enough effect; inconclusive = small, poorly fitted or top-dose-only effect, or effect the other way; inactive = flat fitted curve, though single readings scatter.
Outcome codes: active, inactive

molecule=COc1ccc(CNC(=O)c2cc(-c3cncc(C)c3)ncc2-c2nccs2)nc1OC target_system=SKOV3 classification=inactive
molecule=Cc1nc2ccc(Oc3ccc(F)cc3)cc2c(=O)n1C[C@H]1CCCN(C(C)C)C1 target_system=SKOV3 classification=inactive
molecule="C=CC(C)(CC/C=C(\\C)C(=O)OC)OC1OC(COC(=O)CC(C)(O)CC(=O)O)C(OC2OC(CO)C(O)C(O)C2O)C(O)C1O (centres undefined)" target_system=SKOV3 classification=inactive
molecule="C/C=C/C=C/[C@@H]1O[C@](O)([C@H](CC)C(=O)NC/C=C/C=C(\\C)[C@@H](OC)[C@@H](C)C2OC(/C=C/C=C/C=C(\\C)C(=O)c3c(O)cc[nH]c3=O)[C@H](O)[C@@H]2O)[C@H](O)[C@H](O)C1(C)C (some centres undefined)" target_system=SKOV3 classification=inactive
molecule=CC(C)c1cccc2c(-c3ccccc3)cc(-c3ccc(-c4ccc(C(=O)O)cc4)[nH]3)nc12 target_system=SKOV3 classification=inactive
molecule=CN1CCN(Cc2ccc(-c3cnc4[nH]cc(-c5ccc6[nH]ccc6c5)c4c3)cc2)CC1 target_system=SKOV3 classification=active
molecule=C/C=C/c1cc(OC)c2c(c1)[C@@H](C)[C@@H](c1ccc(O)c(OC)c1)O2 target_system=SKOV3 classification=inactive
molecule=C[C@@H]1C[C@@H](O)[C@@]23CO[C@@H](O)[C@@H]2CCC[C@@H]3[C@@]12C[C@@H](c1ccoc1)OC2=O target_system=SKOV3 classification=inactive
molecule="COc1ccc(CC2NCCc3c2[nH]c2ccc(C)cc32)cc1OC (centres undefined)" target_system=SKOV3 classification=inactive
molecule=OC/C=C/C=C/[C@H]1Cc2cc(O)cc(O)c2O1 target_system=SKOV3 classification=inactive
molecule=COC(=O)C1=CO[C@@H](O[C@@H]2O[C@H](CO)[C@@H](O)[C@H](O)[C@H]2O)[C@@H]2[C@@](C)(O)[C@@H](OC(=O)/C=C/c3ccc(O)cc3)C[C@]12O target_system=SKOV3 classification=inactive
molecule=COc1ccc(/C=C/C(=O)O[C@H]2[C@H](O[C@H]3[C@@H]4C=CO[C@@H](O[C@@H]5O[C@H](CO)[C@@H](O)[C@H](O)[C@H]5O)[C@@H]4[C@@]4(CO)O[C@@H]34)O[C@@H](C)[C@H](O)[C@H]2OC(C)=O)cc1 target_system=SKOV3 classification=inactive
molecule="C/C=C/C(O)C1OC(=O)CC1Nc1ccc(C(=O)O)cc1 (centres undefined)" target_system=SKOV3 classification=inactive
molecule="CC(C)C(C(=O)N(C)C(C)C(N)=O)N(C)C(=O)C1CCCN1C(=O)/C=C/C=C/C(O)C(C)O (centres undefined)" target_system=SKOV3 classification=inactive
molecule=CCCn1c(=O)c2[nH]c(-c3ccc(OCC(=O)O)cc3)nc2n(CCC)c1=O target_system=SKOV3 classification=inactive
molecule="CC(c1ncncc1F)C(O)(Cn1cncn1)c1ccc(F)cc1F (centres undefined)" target_system=SKOV3 classification=inactive
molecule="COC(=O)C12C(=O)C(C)=C(O)C1(C)C(C)=CC1C3(CO)CCC(O)C(C)(C)C3CCC12C (centres undefined)" target_system=SKOV3 classification=inactive
molecule=OC[C@H]1O[C@@H](OCCc2ccccc2)[C@H](O[C@@H]2OC[C@](O)(CO)[C@H]2O)[C@@H](O)[C@@H]1O target_system=SKOV3 classification=inactive
molecule=CCOCc1nc2c(N)nc3ccccc3c2n1CC(C)(C)O target_system=SKOV3 classification=inactive
